System: CH1
Experiment description: Cytotoxicity activity was measured in human ovarian cell line CH1 using sulforhodamine B (SRB) assay
Assay type: functional, cell-based
Readout label: IC50 (nM)
Give the number; nM is assumed, so skip it.

Inquiry: Given C[N+]1(CCC(=O)Nc2ccc3c(c2)C(=O)c2cc(NC(=O)CC[N+]4(C)CCC(O)CC4)ccc2-3)CCC(O)CC1 (stereo unspecified) , respond with its IC50.
Reply text: 1950

###

Target system: DNA polymerase I, thermostable (Thermus aquaticus) (UniProt P19821)
Sequence (P19821 whole entry): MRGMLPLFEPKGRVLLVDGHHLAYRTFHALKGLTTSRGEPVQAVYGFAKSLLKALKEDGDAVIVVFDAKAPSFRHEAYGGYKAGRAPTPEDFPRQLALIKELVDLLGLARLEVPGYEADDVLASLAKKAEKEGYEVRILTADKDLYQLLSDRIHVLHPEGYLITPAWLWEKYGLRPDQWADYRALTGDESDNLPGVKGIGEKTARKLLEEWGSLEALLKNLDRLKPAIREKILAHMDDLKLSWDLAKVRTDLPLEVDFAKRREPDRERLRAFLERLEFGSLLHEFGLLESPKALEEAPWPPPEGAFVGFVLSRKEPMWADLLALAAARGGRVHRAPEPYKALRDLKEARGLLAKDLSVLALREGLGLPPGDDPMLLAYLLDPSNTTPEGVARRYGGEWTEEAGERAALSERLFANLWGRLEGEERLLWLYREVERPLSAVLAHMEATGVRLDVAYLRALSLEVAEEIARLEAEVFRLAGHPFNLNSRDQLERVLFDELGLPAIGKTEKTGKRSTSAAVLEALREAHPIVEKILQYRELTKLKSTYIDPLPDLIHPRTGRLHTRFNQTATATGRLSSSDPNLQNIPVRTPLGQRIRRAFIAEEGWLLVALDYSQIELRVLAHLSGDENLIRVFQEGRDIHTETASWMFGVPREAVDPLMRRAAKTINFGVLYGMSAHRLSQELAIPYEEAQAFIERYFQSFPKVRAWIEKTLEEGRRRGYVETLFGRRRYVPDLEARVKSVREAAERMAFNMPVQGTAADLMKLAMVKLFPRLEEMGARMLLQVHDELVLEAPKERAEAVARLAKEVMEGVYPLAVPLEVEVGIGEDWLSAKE
Experiment description: Inhibitory activity against taq polymerase at 10 uM; No inhibition
Active and inactive are the calls of the source. The rule behind the calls is not given here.
Readout label: inhibition

The following compounds have reported results that may help.
Compound	inhibition
O=C(CCN1CCN(Cc2ccccc2)CC1)Nc1ccc2c(c1)C(=O)c1cc(NC(=O)CCN3CCN(Cc4ccccc4)CC3)ccc1-2	inactive
CCN1CCN(CCC(=O)Nc2ccc3c(c2)C(=O)c2cc(NC(=O)CCN4CCN(CC)CC4)ccc2-3)CC1	inactive
C[N+]1(CCC(=O)Nc2ccc3c(c2)C(=O)c2cc(NC(=O)CC[N+]4(C)CCCCC4)ccc2-3)CCCCC1	inactive
CC1CCCC[N+]1(C)CCC(=O)Nc1ccc2c(c1)C(=O)c1cc(NC(=O)CC[N+]3(C)CCCCC3C)ccc1-2 (centres undefined)	inactive
CCC1CCCC[N+]1(C)CCC(=O)Nc1ccc2c(c1)C(=O)c1cc(NC(=O)CC[N+]3(C)CCCCC3CC)ccc1-2 (centres undefined)	inactive
CC1CCCCN1CCC(=O)Nc1ccc2c(c1)C(=O)c1cc(NC(=O)CCN3CCCCC3C)ccc1-2 (centres undefined)	inactive
C[N+]1(CCC(=O)Nc2ccc3c(c2)C(=O)c2cc(NC(=O)CC[N+]4(C)CCCCC4CCO)ccc2-3)CCCCC1CCO (centres undefined)	inactive
CN(C)CCC(=O)Nc1ccc2c(c1)C(=O)c1cc(NC(=O)CCN(C)C)ccc1-2	inactive

Next up:
Inquiry: Find the measured inhibition of C[N+]1(CCC(=O)Nc2ccc3c(c2)C(=O)c2cc(NC(=O)CC[N+]4(C)CCCCC4CO)ccc2-3)CCCCC1CO (centres undefined) with DNA polymerase I, thermostable (Thermus aquaticus) (UniProt P19821) as test system.
Reply text: inactive

###

Parameter IC50, tested on UniProt:O14746, listed per item.
Give the number; µM is assumed, so skip it.

Compound	Reported result
CCC1CCCCN1CCC(=O)Nc1ccc2c(c1)C(=O)c1cc(NC(=O)CCN3CCCCC3CC)ccc1-2 (centres undefined)	14
CCN(CC)CCC(=O)Nc1ccc2c(c1)C(=O)c1cc(NC(=O)CCN(CC)CC)ccc1-2	15.5

Inquiry: Given CCN1CCN(CCC(=O)Nc2ccc3c(c2)C(=O)c2cc(NC(=O)CCN4CCN(CC)CC4)ccc2-3)CC1 , respond with its IC50.
Reply text: 17

###

Parameter IC50, tested on Telomerase reverse transcriptase (Homo sapiens, UniProt O14746), listed per item.
Sequence (O14746 whole entry): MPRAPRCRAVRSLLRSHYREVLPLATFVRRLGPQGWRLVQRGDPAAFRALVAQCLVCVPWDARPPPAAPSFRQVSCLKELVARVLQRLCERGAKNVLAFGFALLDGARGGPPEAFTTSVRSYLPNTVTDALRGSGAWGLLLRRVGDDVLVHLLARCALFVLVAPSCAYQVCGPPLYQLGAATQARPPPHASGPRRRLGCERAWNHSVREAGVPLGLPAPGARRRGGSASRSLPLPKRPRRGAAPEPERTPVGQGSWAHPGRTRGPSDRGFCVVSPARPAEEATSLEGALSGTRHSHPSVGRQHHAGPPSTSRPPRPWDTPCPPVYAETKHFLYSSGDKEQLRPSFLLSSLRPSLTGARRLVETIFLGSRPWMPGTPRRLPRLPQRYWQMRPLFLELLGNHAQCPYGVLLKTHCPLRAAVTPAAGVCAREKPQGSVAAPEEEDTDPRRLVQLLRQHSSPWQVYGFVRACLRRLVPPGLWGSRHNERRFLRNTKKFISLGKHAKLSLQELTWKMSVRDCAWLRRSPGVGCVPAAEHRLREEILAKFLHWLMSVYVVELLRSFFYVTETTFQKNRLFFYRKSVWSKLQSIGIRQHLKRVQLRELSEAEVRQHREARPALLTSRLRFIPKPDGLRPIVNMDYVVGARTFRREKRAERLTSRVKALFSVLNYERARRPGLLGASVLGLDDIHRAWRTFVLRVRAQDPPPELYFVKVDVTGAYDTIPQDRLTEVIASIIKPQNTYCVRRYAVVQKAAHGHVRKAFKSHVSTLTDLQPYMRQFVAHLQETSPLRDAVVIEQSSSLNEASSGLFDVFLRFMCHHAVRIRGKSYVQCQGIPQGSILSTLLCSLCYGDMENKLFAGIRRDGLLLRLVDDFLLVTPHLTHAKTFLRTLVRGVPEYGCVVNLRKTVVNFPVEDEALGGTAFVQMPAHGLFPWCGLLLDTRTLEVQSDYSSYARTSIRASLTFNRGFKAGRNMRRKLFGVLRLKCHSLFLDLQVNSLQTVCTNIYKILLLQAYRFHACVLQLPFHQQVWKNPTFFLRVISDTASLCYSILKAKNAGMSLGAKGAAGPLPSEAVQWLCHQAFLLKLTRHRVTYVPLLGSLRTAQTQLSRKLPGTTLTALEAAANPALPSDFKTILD

Inquiry: Find the measured IC50 of CC1CCCCN1CCC(=O)Nc1ccc2c(c1)C(=O)c1cc(NC(=O)CCN3CCCCC3C)ccc1-2 (stereo unspecified) with Telomerase reverse transcriptase (Homo sapiens, UniProt O14746) as test system.
Reply text: 12 µM

###

Parameter IC50, tested on Telomerase reverse transcriptase (Homo sapiens), listed per item.

The following compounds have reported results that may help.
Compound	Reported result
O=C(CCN1CCN(c2ccccc2)CC1)Nc1ccc2c(c1)C(=O)c1cc(NC(=O)CCN3CCN(c4ccccc4)CC3)ccc1-2	> 50 µM
O=C(CCN1CCN(c2ncccn2)CC1)Nc1ccc2c(c1)C(=O)c1cc(NC(=O)CCN3CCN(c4ncccn4)CC3)ccc1-2	> 50 µM
O=C(CCN1CCN(c2ccccn2)CC1)Nc1ccc2c(c1)C(=O)c1cc(NC(=O)CCN3CCN(c4ccccn4)CC3)ccc1-2	> 50 µM
O=C(CCN1CCN(Cc2ccccc2)CC1)Nc1ccc2c(c1)C(=O)c1cc(NC(=O)CCN3CCN(Cc4ccccc4)CC3)ccc1-2	> 50 µM

Inquiry: Find the measured IC50 of CC1CCCC[N+]1(C)CCC(=O)Nc1ccc2c(c1)C(=O)c1cc(NC(=O)CC[N+]3(C)CCCCC3C)ccc1-2 (stereo not given) with Telomerase reverse transcriptase (Homo sapiens) as test system.
Reply text: > 20 µM
